The following molecules are listed with their measured solubility kinetic values.
Assay: Kinetic solubility of the compound in pH 6.5
Assay type: physicochemical
Details: buffer, read-out: Kinetic_solubility
Unit µM implied. Number only.

{"mol": "O/N=C(\\c1nnc(C(F)(F)F)s1)c1nc2ccccc2s1", "solubility kinetic [µM]": 67}
{"mol": "N#C/C(=N\\[O-])c1ccccc1.[Na+]", "solubility kinetic [µM]": 56}
{"mol": "Nc1nonc1-c1nc2ccccc2s1", "solubility kinetic [µM]": 5}
{"mol": "OC(O)(c1nc2ccccc2s1)C(F)(F)F", "solubility kinetic [µM]": 184}
{"mol": "CN(C)C(=O)O/N=C(\\C#N)c1nc2ccccc2[nH]1", "solubility kinetic [µM]": 29}
{"mol": "CN(C)C(=O)O/N=C(\\C#N)c1ccccn1", "solubility kinetic [µM]": 175}
{"mol": "CN(C)C(=O)O/N=C(\\C#N)c1nc2ccccc2o1", "solubility kinetic [µM]": 18}

With those in mind, consider the next molecule.
Lab note: measured solubility kinetic of N#C/C(=N\O)c1ccccn1 was 202

###

Experiment: Stability in rat liver microsomes assessed as compound remaining after 30 mins
Type: ADME, Microsome
Conditions: read-out: Stability
Listed molecules paired with reported remaining at 0.5 h
Note: unit % is implicit; provide only the numeric part.

{"mol": "CN(C)C(=O)O/N=C(\\C#N)c1nc2ccccc2o1", "value kind": "remaining at 0.5 h", "numeric readout": 98}

The reported value for O/N=C(\c1nnc(C(F)(F)F)s1)c1nc2ccccc2s1 in terms of remaining at 0.5 h is 86

###

Assay: Stability in human liver microsomes assessed as compound remaining after 30 mins
Type: ADME, Microsome
Details: read-out: Stability
value kind: remaining at 0.5 h

{"mol": "CN(C)C(=O)O/N=C(\\C#N)c1nc2ccccc2o1", "remaining at 0.5 h": "> 99%"}

Short answer for O/N=C(\c1nnc(C(F)(F)F)s1)c1nc2ccccc2s1 : remaining at 0.5 h was > 99%

###

Experiment: Stability in human liver S9 fraction assessed as compound remaining after 40 mins
Type: ADME, subcellular
Settings: read-out: Stability
value kind: remaining at 40 min (%)
The figure you give is taken to be in %; do not add the unit.

// recorded remaining at 40 min for CN(C)C(=O)O/N=C(\C#N)c1nc2ccccc2o1 : 60

Hey, just so you know, these numbers are from ChEMBL document CHEMBL5034002.
